test system: HEK-293T; assay: Multiplex assay against HEK293T; format: toxicity, cell-based; conditions: human, 24 h, 10 µM, compound concentration 10 uM, replicate 1
REPORTED PROPERTY: Population Membrane Permeable-Phenotype (%)
Reply numerically in %, unit not repeated.

Prompt: Returns the measured Population Membrane Permeable-Phenotype (%) for the input compound. Input: Cl.Cl.OCCOCCN1CCN(C(c2ccccc2)c2ccc(Cl)cc2)CC1 (centres undefined) [HYDROXYZINE HYDROCHLORIDE]
Response: 0

Prompt: Return reported Population Membrane Permeable-Phenotype (%); argument: Cc1cc(NC(=O)NCCN2CCC(O)(Cc3ccccc3)CC2)c2ccccc2n1 [PALOSURAN]
Response: 0

Prompt: GET /values?readout=Population Membrane Permeable-Phenotype (%)&item= `Cc1nn(C)c2nc(NNC(=O)Nc3cc(Cl)nc(Cl)c3)cc(C(C)C)c12`
Response: 0

Prompt: Which Population Membrane Permeable-Phenotype (%) value belongs to Cc1ccc(OCC(O)C(C)NC(C)C)c2c1CCC2.Cl (centres undefined) ?
Response: 1

Prompt: Which Population Membrane Permeable-Phenotype (%) reading was recorded for the compound COc1ccc2c(c1OCc1ccccc1)C[C@@H](C(=O)O)N(C(=O)C(c1ccccc1)c1ccccc1)C2 [OLODANRIGAN] ?
Response: 0

Prompt: May I ask what Population Membrane Permeable-Phenotype (%) has been recorded for CN(C)C/C=C/C(=O)Nc1ccc(C(=O)N2CCCC(Nc3ncc(Cl)c(-c4c[nH]c5ccccc45)n3)C2)cc1 (centres undefined) ?
Response: 0

Prompt: Look up Population Membrane Permeable-Phenotype (%): `S=C(NCCCc1c[nH]cn1)NCCCN(Cc1ccc(Cl)c(Cl)c1)c1ccc(Br)cn1`
Response: 1

Prompt: Entry under review: CCCCC[C@H](O)/C=C/[C@H]1[C@H](O)CC(=O)[C@@H]1CCCCCCC(=O)O [ALPROSTADIL] . Reported Population Membrane Permeable-Phenotype (%)?
Response: 0

Prompt: Give the measured Population Membrane Permeable-Phenotype (%) of `C[C@H](NC(=O)CNC(=O)c1cccc(Cl)c1)c1ccccc1` .
Response: 0

----------
system: U2OS; assay: Multiplex assay against U2OS; assay type: toxicity, cell-based; settings: human, 48 h, 1 µM, compound concentration 1 uM, replicate 1
REPORTED PROPERTY: Population Apoptotic (%)

Prompt: Could you tell me which Population Apoptotic (%) is on file for `COc1c(Nc2ccc(S(C)(=O)=O)nc2C)ncnc1OC1CCN(C(=O)OC(C)C)CC1` ?
Response: 80%

Prompt: What measured Population Apoptotic (%) goes with `S=C(NCCCc1c[nH]cn1)NCCCN(Cc1ccc(Cl)c(Cl)c1)c1ccc(Br)cn1` ?
Response: 83%

Prompt: Param item = `C[C@H](NC(=O)CNC(=O)c1cccc(Cl)c1)c1ccccc1` ; retrieve measured Population Apoptotic (%).
Response: 74%

Prompt: Looking for the measured Population Apoptotic (%) of `COc1cc(Nc2ncc3c(n2)-c2ccc(Cl)cc2C(c2c(F)cccc2OC)=NC3)ccc1C(=O)O` , can you help?
Response: 85%

Prompt: For the compound shown here, Cc1ccc(OCC(O)C(C)NC(C)C)c2c1CCC2.Cl (configuration not stated) , give the reported Population Apoptotic (%).
Response: 88%

Prompt: Quick check: Population Apoptotic (%) of `CN1CCN(c2ccc(Nc3c4ccccc4nc4ccccc34)cc2)CC1.Cl.Cl.O` ?
Response: 87%

Prompt: Requested field: Population Apoptotic (%). Item: `Cc1cc(O)c(-c2ccc([C@@H](C)CN(C)C)cc2)c2c1[nH]c(=O)c1sccc12`
Response: 96%

----------
system: HEK-293T; assay: Multiplex assay against HEK293T; assay type: toxicity, cell-based; conditions: human, 24 h, 1 µM, compound concentration 1 uM, replicate 1
REPORTED PROPERTY: Population Hoechst High Intensity Objects (%)
Field: numeric (%). Do not append units.

Prompt: Item Cc1ccc(OCC(O)C(C)NC(C)C)c2c1CCC2.Cl (stereo not given) has what recorded Population Hoechst High Intensity Objects (%)?
Response: 3

Prompt: Quick check: Population Hoechst High Intensity Objects (%) of O=C(O)CCC/C=C\CC1C(O)CC(O)C1/C=C/C(O)COc1cccc(Cl)c1 (stereo not given) [CLOPROSTENOL] ?
Response: 7

Prompt: Query: Population Hoechst High Intensity Objects (%); subject: `Cc1sc2c(c1C)C(c1ccc(Cl)cc1)=N[C@H](CC(=O)OC(C)(C)C)c1nnc(C)n1-2`
Response: 5

Prompt: Form field: reported Population Hoechst High Intensity Objects (%) of `CN1CCN(c2ccc(Nc3c4ccccc4nc4ccccc34)cc2)CC1.Cl.Cl.O`
Response: 2

Prompt: Value lookup for Population Hoechst High Intensity Objects (%); key = COCCCN1CCC(NC(=O)c2cc(Cl)c(N)c3c2OCC3)CC1 [PRUCALOPRIDE]
Response: 5

Prompt: What value of measured Population Hoechst High Intensity Objects (%) is listed for `Cc1nn(C)c2nc(NNC(=O)Nc3cc(Cl)nc(Cl)c3)cc(C(C)C)c12` ?
Response: 3

Prompt: // query Population Hoechst High Intensity Objects (%) value for entry Cl.Cl.OCCOCCN1CCN(C(c2ccccc2)c2ccc(Cl)cc2)CC1 (stereo not given) [HYDROXYZINE HYDROCHLORIDE]
Response: 2

Prompt: Fill in the blank: the reported Population Hoechst High Intensity Objects (%) of COc1ccc2c(c1OCc1ccccc1)C[C@@H](C(=O)O)N(C(=O)C(c1ccccc1)c1ccccc1)C2 [OLODANRIGAN] is ____.
Response: 3

Prompt: # get_value(readout='Population Hoechst High Intensity Objects (%)', item= CC(C)(C)c1ccc(CSc2cnn(C(C)(C)C)c(=O)c2Cl)cc1 [PYRIDABEN] )
Response: 9

Prompt: Using the record for CN1C[C@H](C(=O)N[C@]2(C)O[C@@]3(O)[C@@H]4CCCN4C(=O)[C@H](Cc4ccccc4)N3C2=O)C[C@@H]2c3cccc4[nH]cc(c34)C[C@H]21.CS(=O)(=O)O [DIHYDROERGOTAMINE MESYLATE] , report its Population Hoechst High Intensity Objects (%).
Response: 4

----------
test system: HEK-293T; experiment: Multiplex assay against HEK293T; format: toxicity, cell-based; details: human, 48 h, 10 µM, compound concentration 10 uM, replicate 1
Give measured Population Mitotic Cells (%) for each item. Keep answers brief.
Could you write the number and then its unit?

Prompt: Need Population Mitotic Cells (%), item `Nc1nc(-c2ccco2)c2cnn(Cc3ccccc3F)c2n1`
Response: 63%

Prompt: Item under review: `CN1CCC(C(=O)c2cccc(NC(=O)c3c(F)cc(F)cc3F)n2)CC1` . Reported Population Mitotic Cells (%)?
Response: 69%

Prompt: Which Population Mitotic Cells (%) reading was recorded for the compound `CCc1nn2c(C)cc(C)nc2c1Cc1ccc(-c2nnc(C3CCNCC3)o2)cc1` ?
Response: 45%

----------
tested on: Fibroblast; test: Multiplex assay against human fibroblast; assay type: toxicity, cell-based; conditions: 48 h, 10 µM, compound concentration 10 uM, replicate 1
REPORTED PROPERTY: Population Membrane Permeable-Phenotype (%)
The answer is to be given in %; state only the numeric part.

Prompt: Query for Fibroblast: what Population Membrane Permeable-Phenotype (%) does the record show for `CCc1nn2c(C)cc(C)nc2c1Cc1ccc(-c2nnc(C3CCNCC3)o2)cc1` ?
Response: 0

Prompt: I'm curious: which Population Membrane Permeable-Phenotype (%) was measured for `CCCCC[C@H](O)/C=C/[C@H]1[C@H](O)CC(=O)[C@@H]1CCCCCCC(=O)O` tested on Fibroblast?
Response: 1

Prompt: Short answer please: Population Membrane Permeable-Phenotype (%), Fibroblast, entry O=C(O)CCC/C=C\CC1C(O)CC(O)C1/C=C/C(O)COc1cccc(Cl)c1 (stereo not drawn)
Response: 0

----------
test system: U2OS; assay: Multiplex assay against U2OS; type: toxicity, cell-based; conditions: human, 48 h, 1 µM, compound concentration 1 uM, replicate 2
Non-standard residues stand in square brackets, D forms with d. Residues, ends and D or L forms follow the SMILES beside them.
Assign class by Population Tubulin-Different-Phenotype (%): not lower than 4% means Yes; lower than 4% means No.

Prompt: Has `CC(C)(O)C(=O)N1CCN(c2ccc(C(F)(F)F)c(C3=C(c4c[nH]c5ccccc45)C(=O)NC3=O)c2)CC1` a recorded Population Tubulin-Different-Phenotype (%) greater than or equal to 4%?
Response: No

Prompt: Exam item: decide whether the reported Population Tubulin-Different-Phenotype (%) for `CN(C)C(=O)Cn1cc(-c2ccc(-c3nnc4ccccn34)cc2)cn1` is at least 4%.
Response: No

Prompt: Does the reported Population Tubulin-Different-Phenotype (%) for `CCCCC[C@H](O)/C=C/[C@H]1[C@H](O)CC(=O)[C@@H]1CCCCCCC(=O)O` fall at or above the 4% mark?
Response: Yes

Prompt: Given the entry `COc1cc(C(=O)N2CC[C@@H](O)[C@@H](N)C2)cc2nc(-c3cc4ccccc4n3CC3CC3)n(C)c12.Cl` , answer whether its Population Tubulin-Different-Phenotype (%) meets or surpasses 4%.
Response: Yes

Prompt: Record `Cc1c(Cc2ccc3ccccc3n2)c2cc(F)ccc2n1CC(=O)O` ; criterion: Population Tubulin-Different-Phenotype (%) no lower than 4%. Met?
Response: Yes

Prompt: Form field: Population Tubulin-Different-Phenotype (%) at least 4%? Entry: CN1CCN2c3ccccc3Cc3ccccc3C2C1.Cl (stereo not given) [MIANSERIN HYDROCHLORIDE]
Response: No

Prompt: Identify whether the reported Population Tubulin-Different-Phenotype (%) of the following compound is 4% or greater: Cl.Cl.OCCOCCN1CCN(C(c2ccccc2)c2ccc(Cl)cc2)CC1 (stereo not given) [HYDROXYZINE HYDROCHLORIDE]
Response: No

Prompt: Tell me whether Population Tubulin-Different-Phenotype (%) is at least 4% here: `O=c1ccc2ccc(OCCCCN3CCN(c4cccc5sccc45)CC3)cc2[nH]1`
Response: Yes

Prompt: Does Population Tubulin-Different-Phenotype (%) meet or surpass 4% for CC(C)C[C@@H]1NC(=O)[C@@H](C(C)C)NC(=O)[C@@H]2CCCN2C(=O)[C@@H](CC(=O)O)NC(=O)[C@@H](Cc2c[nH]c3ccccc23)NC1=O [BQ-123] (cyclo(L[dW][dD]P[dV])) ?
Response: No

Prompt: Does `COc1cc2nc(N3CCN(C(=O)COc4c(OC)cccc4C(C)C)CC3)nc(N)c2cc1OC.Cl.Cl` have a reported Population Tubulin-Different-Phenotype (%) of at least 4%?
Response: Yes

Prompt: Hello, I need to know if `Cc1nn(C)c2nc(NNC(=O)Nc3cc(Cl)nc(Cl)c3)cc(C(C)C)c12` has measured Population Tubulin-Different-Phenotype (%) not below 4%. Thanks!
Response: Yes

Prompt: Does the compound `CC(C)(C)c1ccc(CSc2cnn(C(C)(C)C)c(=O)c2Cl)cc1` have recorded Population Tubulin-Different-Phenotype (%) that is 4% or more?
Response: No

Prompt: Hi team, for Cc1ccc(OCC(O)C(C)NC(C)C)c2c1CCC2.Cl (stereo not given) , is the recorded Population Tubulin-Different-Phenotype (%) at or above 4%?
Response: No
